# Tested on: SK-OV-3 ovarian
# test method notes: NCI-60 one-dose screen, 48 h
# stated conditions: 10 µM unless noted
This is part of a sample that, as a whole, favours compounds with a hit. Of some 83,000 tested, about 20% had one in any assay. Activity calls are given as the source filed them. How the source made its calls: active means growth percent below 10; inactive means the rest.
Classes used: Yes for active, No for inactive

[[record]]
compound = "Cc1cc(NC(=O)NCCOc2ccc(N3C(N)=NC(N)=NC3(C)C)cc2Cl)ccc1S(=O)(=O)F"
target_or_test_system = "SK-OV-3 ovarian"
class_assignment = "No"

[[record]]
compound = "Nc1ccc([N+](=O)[O-])c2c1Oc1ccccc1O2"
target_or_test_system = "SK-OV-3 ovarian"
class_assignment = "No"

[[record]]
compound = "CC1CC=CCC12C(=O)NC(=S)NC2=O (stereo not drawn)"
target_or_test_system = "SK-OV-3 ovarian"
class_assignment = "No"

[[record]]
compound = "COc1cc2c(cc1OC)CN(C)C(C)C2 (stereo not drawn)"
target_or_test_system = "SK-OV-3 ovarian"
class_assignment = "No"

[[record]]
compound = "CC(=O)[O][Hg][CH2]C1(C)COC(C)([CH2][Hg][O]C(C)=O)CO1 (stereo not drawn)"
target_or_test_system = "SK-OV-3 ovarian"
class_assignment = "No"

[[record]]
compound = "CCCCCCCCCCCCOc1ccc(C(=O)Oc2ccc(CSP3(=O)OCC4OC(n5cnc6c(N)ncnc65)C(F)C4OP(=O)(O)OCC4OC(n5ccc(=O)[nH]c5=O)C(F)C4O3)cc2)cc1 (stereo not drawn)"
target_or_test_system = "SK-OV-3 ovarian"
class_assignment = "No"

[[record]]
compound = "n1nc(-c2nonc2-c2nn[nH]n2)n[nH]1"
target_or_test_system = "SK-OV-3 ovarian"
class_assignment = "No"

[[record]]
compound = "COc1cccc2c1C(=O)c1c(O)c3c(c(O)c1C2=O)CC(O)(/C(C)=N/NC(=O)CCC(=O)N/N=C(\\C)C1(O)Cc2c(O)c4c(c(O)c2C(OC2CC(N)C(O)C(C)O2)C1)C(=O)c1c(OC)cccc1C4=O)CC3OC1CC(N)C(O)C(C)O1 (stereo not drawn)"
target_or_test_system = "SK-OV-3 ovarian"
class_assignment = "Yes"

[[record]]
compound = "CCC(CO)NC1CCCCC1 (stereo not drawn)"
target_or_test_system = "SK-OV-3 ovarian"
class_assignment = "No"

[[record]]
compound = "CC[C@]12C=CCN3CC[C@@]4(c5ccc(OC)cc5N(C)[C@H]4[C@@](O)(C(=O)OC)[C@@H]1OC(=O)CCCN1CCN(CCCC(=O)O[C@@H]4[C@]5(CC)C=CCN6CC[C@@]7(c8ccc(OC)cc8N(C)[C@H]7[C@@]4(O)C(=O)OC)[C@@H]65)CC1)[C@@H]32"
target_or_test_system = "SK-OV-3 ovarian"
class_assignment = "Yes"

[[record]]
compound = "Cc1ccccc1O"
target_or_test_system = "SK-OV-3 ovarian"
class_assignment = "No"

[[record]]
compound = "CCOc1cc(/C=N\\Nc2nnc(C)n2N)c(C)cc1N(CCCl)CCCl"
target_or_test_system = "SK-OV-3 ovarian"
class_assignment = "No"

[[record]]
compound = "Oc1ccc2c3c1O[C@H]1c4[nH]c5ccccc5c4C[C@@]4(O)C(C2)N(CC2CC2)CC[C@]314"
target_or_test_system = "SK-OV-3 ovarian"
class_assignment = "No"

[[record]]
compound = "O=C(/C=C/c1ccccc1)N[C@@H](CO)Cc1cnc[nH]1"
target_or_test_system = "SK-OV-3 ovarian"
class_assignment = "No"

[[record]]
compound = "CC(=O)O[C@H]1CCC2C3CCC4=C/C(=N/O)CCC4(C)C3CCC21C (stereo partly drawn)"
target_or_test_system = "SK-OV-3 ovarian"
class_assignment = "No"

[[record]]
compound = "O=C(O)C1[O][Sb][O]C1C(=O)O (stereo not drawn)"
target_or_test_system = "SK-OV-3 ovarian"
class_assignment = "No"

[[record]]
compound = "C1CN1c1nc(N2CC2)nc(N2CC2)n1"
target_or_test_system = "SK-OV-3 ovarian"
class_assignment = "No"

[[record]]
compound = "c1ccc(-c2ccc3ccccc3[o+]2)cc1"
target_or_test_system = "SK-OV-3 ovarian"
class_assignment = "No"

